The origin of these recorded values is ChEMBL document CHEMBL3507680.

Known cytotoxicity at 70.5 h of a selection of compounds
Assay: Human HepG2 cell viability assay in 384 well format
Type: toxicity, cell-based
Design: dose 125 nL, time 70.5 hour; concentration not given beside the values
Settings: HepG2 cells, read-out: Inhibition

{"compound": "CCc1nnsc1C(=O)N1CCCN(Cc2cnn(C)c2)CC1", "cytotoxicity at 70.5 h, %": -27.3}
{"compound": "O=C(CO[C@@H]1CC[C@H]2[C@H]1OCCN2Cc1ccccn1)N1CCCC1", "cytotoxicity at 70.5 h, %": 13.4}
{"compound": "Cc1cc(C)c(CNC(=O)N(C)Cc2cccc(C#N)c2)c(=O)[nH]1", "cytotoxicity at 70.5 h, %": -1.75}
{"compound": "CC1COCCN1C(=O)c1cnccn1 (centres undefined)", "cytotoxicity at 70.5 h, %": 7.55}
{"compound": "COc1cc(Cl)cc(C(=O)N2CCC3(CCCNC3)C2)c1 (centres undefined)", "cytotoxicity at 70.5 h, %": -5.79}
{"compound": "O=C(c1ccncc1F)N1CC[C@@H]2CN(c3ncccn3)CCO[C@@H]2C1", "cytotoxicity at 70.5 h, %": -11.2}
{"compound": "Cc1cc(CN2CCCC2Cn2cncn2)no1 (centres undefined)", "cytotoxicity at 70.5 h, %": 26.7}
{"compound": "C[C@H](c1ccc(Cl)cc1)n1c(C2CC2)n[nH]c1=O", "cytotoxicity at 70.5 h, %": -3.55}
{"compound": "CCOC(=O)N1CC(C)=C(C)CN1C(=O)Nc1ccc(Cl)c(Cl)c1", "cytotoxicity at 70.5 h, %": 6.17}
{"compound": "c1ccc(CN2CCC(Nc3ncnc4c3CCNCC4)C2)cc1 (centres undefined)", "cytotoxicity at 70.5 h, %": -4.37}
{"compound": "Cc1ccc(NC2CCN(C(=O)c3n[nH]c4ccccc34)CC2)nn1", "cytotoxicity at 70.5 h, %": 1.27}
{"compound": "Cc1cccc(CCC(=O)N2CCCC(c3cc(C(N)=O)[nH]n3)C2)c1 (centres undefined)", "cytotoxicity at 70.5 h, %": 19}
{"compound": "O=C(N[C@@H]1CN[C@H]2CCCO[C@H]21)c1cnccn1", "cytotoxicity at 70.5 h, %": -0.404}
{"compound": "CCOCCCNC(=O)c1nnn(Cc2ccccc2)c1OC", "cytotoxicity at 70.5 h, %": -4.93}
{"compound": "CC(C)(C)c1ccc(C(=O)NCCCNC(=O)c2cnccn2)cc1", "cytotoxicity at 70.5 h, %": -3.26}
{"compound": "Cc1cnc(CN(C)C2CCCN(Cc3noc(C4CC4)n3)C2)cn1 (centres undefined)", "cytotoxicity at 70.5 h, %": 16.1}
{"compound": "O=C(c1ccc2[nH]ccc2c1)N1CC[C@@H]2CN(CC3CC3)CCO[C@@H]2C1", "cytotoxicity at 70.5 h, %": -7.61}
{"compound": "Cc1cnn(CC2CCCN2C(=O)c2ccc(C(N)=O)cn2)c1 (centres undefined)", "cytotoxicity at 70.5 h, %": -10.6}
{"compound": "CC(=O)c1ccc(NC(=O)c2ccc3c(c2)C2(CCCCC2)CN3)cc1", "cytotoxicity at 70.5 h, %": -9.32}

====

Experiment: Human HepG2 cell viability assay in 384 well format
Assay type: toxicity, cell-based
Design: dose 125 nL, time 70.5 hour; concentration not given beside the values
Settings: HepG2 cells, read-out: Inhibition

{"molecule": "CC(NC(=O)NCCCOC1CCCCC1)c1nncn1C (centres undefined)", "valueUnit": "%", "cytotoxicity at 70.5 h": -6.4}
{"molecule": "OC(COCc1cccs1)Cn1cc(-n2cccc2)cn1 (centres undefined)", "valueUnit": "%", "cytotoxicity at 70.5 h": 2.56}
{"molecule": "OCc1ccc(CN2CCC(n3cc(-c4ccsc4)nn3)CC2)o1", "valueUnit": "%", "cytotoxicity at 70.5 h": -5.24}
{"molecule": "COCCNC(=O)C1CN(Cc2nccs2)Cc2ccnn2C1 (centres undefined)", "valueUnit": "%", "cytotoxicity at 70.5 h": -6.42}

====

Known cytotoxicity at 70.5 h of a selection of molecules
Assay: Human HepG2 cell viability assay in 384 well format
Format: toxicity, cell-based
Parameters: dose 125 nL, time 70.5 hour; concentration not given beside the values
Conditions: HepG2 cells, read-out: Inhibition
reportedMetric: cytotoxicity at 70.5 h (%)

{"molecule": "CC(C)c1cc(C(=O)N2C[C@H]3CC[C@@H]2CN(Cc2cscn2)C3)no1", "recordedMeasurement": 15.2}
{"molecule": "COCCN1C[C@@H]2CN(Cc3ccsc3)CCC[C@]2(C(=O)O)C1", "recordedMeasurement": -12.1}
{"molecule": "CNc1cc(N2CCCC2CNCc2cnc(C)s2)ncn1 (stereo unspecified)", "recordedMeasurement": 2.89}
{"molecule": "Cc1nn(C)c(C)c1-c1ccnc(N(C)Cc2noc(C(C)C)n2)n1", "recordedMeasurement": 7.17}
{"molecule": "Cc1ccc(F)cc1NC(=O)NCC(C)N1CCOCC1 (stereo unspecified)", "recordedMeasurement": 9.4}
{"molecule": "Cn1cc(Cl)c(C(=O)N2CCc3nc4sccc4c(=O)n3CC2)n1", "recordedMeasurement": -2.51}
{"molecule": "Cc1ccc(CN2CC[C@@H](O)[C@@H]2Cc2ccccc2)o1", "recordedMeasurement": 34}
{"molecule": "COc1cccc2c(=O)n(C3CCCNC3)cnc12 (stereo unspecified)", "recordedMeasurement": -11.4}
{"molecule": "COCCn1cc(C(=O)N2CCCC2c2cccc(F)c2)ccc1=O (stereo unspecified)", "recordedMeasurement": -4.27}
{"molecule": "COC(=O)C(C)Sc1nnnn1C1CCOCC1 (stereo unspecified)", "recordedMeasurement": -5.79}
{"molecule": "CN1CC2(CCN(C(=O)Cn3ncc4ccccc4c3=O)CC2)OC1=O", "recordedMeasurement": -13.8}
{"molecule": "CS(=O)(=O)CCNC1CCCN(Cc2noc(C3CC3)n2)C1 (stereo unspecified)", "recordedMeasurement": -13.7}
{"molecule": "Cc1ccccc1C(NC(=O)CNC(=O)c1ccoc1C)C(C)C (stereo unspecified)", "recordedMeasurement": 11.7}
{"molecule": "Cc1nc(C2CCCN2Cc2nnc(Cc3ccccc3)o2)no1 (stereo unspecified)", "recordedMeasurement": 2.42}
{"molecule": "Cc1ccc(C(O)CNC(=O)CCCc2ccccn2)o1 (stereo unspecified)", "recordedMeasurement": -8.17}
{"molecule": "Cc1cc2occ(CC(=O)N3CCC(O)(CN(C)C)C3)c2cc1Cl (stereo unspecified)", "recordedMeasurement": -5.39}

====

Assay: Human HepG2 cell viability assay in 384 well format
Assay type: toxicity, cell-based
Parameters: dose 125 nL, time 70.5 hour; concentration not given beside the values
Details: HepG2 cells, read-out: Inhibition

{"compound": "CS(=O)(=O)N1CCCC1CS(=O)(=O)c1ccccc1 (centres undefined)", "cytotoxicity at 70.5 h (%)": -11.6}
{"compound": "Cc1ccccc1N1CCN(C(=O)CCc2nncn2C)C(C)C1 (centres undefined)", "cytotoxicity at 70.5 h (%)": -1.67}
{"compound": "CCN1CCN(C(=O)c2scnc2C)CC1", "cytotoxicity at 70.5 h (%)": 18.9}
{"compound": "CC(CCc1ccccc1F)C(=O)NS(=O)(=O)N(C)C(C)C (centres undefined)", "cytotoxicity at 70.5 h (%)": -12.3}
{"compound": "CC(=O)N1N=C(c2ccco2)OC1C(=O)N(CC(C)C)CC(C)C (centres undefined)", "cytotoxicity at 70.5 h (%)": -1.96}
{"compound": "Cc1nn(CCO)cc1CN1CCCN(C2CCCC2)CC1", "cytotoxicity at 70.5 h (%)": 12.8}
{"compound": "O=C(Cn1cccc2oc(=O)nc1-2)NCC1Cc2ccccc2O1 (centres undefined)", "cytotoxicity at 70.5 h (%)": -5.36}
{"compound": "Cc1nn(C)c(C)c1C1CCCN1c1ncnc2sccc12 (centres undefined)", "cytotoxicity at 70.5 h (%)": 3.73}
{"compound": "COc1ccc(CN2CCn3cncc3C2)cc1Cn1cncn1", "cytotoxicity at 70.5 h (%)": -5.89}
{"compound": "O=C(c1ccncn1)N1CCO[C@H]2[C@@H](OCc3cccnc3)CC[C@@H]21", "cytotoxicity at 70.5 h (%)": -9.05}
{"compound": "COC(=O)CNC(=O)CCc1cc(Cl)cs1", "cytotoxicity at 70.5 h (%)": 6.93}
{"compound": "Cc1c[nH]nc1C1CCN(S(=O)(=O)N(C)C)CC1", "cytotoxicity at 70.5 h (%)": 0.689}
{"compound": "CCCN(CCc1cccc(F)c1)c1ccc2nnnn2n1", "cytotoxicity at 70.5 h (%)": -22.2}
{"compound": "CCn1ccnc1CN1CCCN(C(=O)c2cnc(C)cn2)CC1", "cytotoxicity at 70.5 h (%)": -5.42}
{"compound": "CCn1nc(CC(C)C)cc1C(=O)N1CCN([C@H]2CCCC[C@@H]2O)CC1", "cytotoxicity at 70.5 h (%)": -2.99}
{"compound": "CCc1ccc(CN(C)Cc2nc(-c3cnccn3)no2)nc1", "cytotoxicity at 70.5 h (%)": -13.4}
{"compound": "CC(C)=CCN1C[C@H]2CC[C@@H]1CN(C(=O)CSc1ccncc1)C2", "cytotoxicity at 70.5 h (%)": -0.143}
{"compound": "Cc1nc(C(=O)N2CCC(c3cc(CCO)n(C)n3)C2)co1 (centres undefined)", "cytotoxicity at 70.5 h (%)": 16.6}
{"compound": "Cn1cnn(Cc2c(F)cccc2Br)c1=O", "cytotoxicity at 70.5 h (%)": 24.5}
{"compound": "Cc1ncnc2c1CCN(C(=O)N(C)C)CC2", "cytotoxicity at 70.5 h (%)": -0.115}
{"compound": "CC1CCCCN1c1nc2c(c(=O)[nH]1)CCN(Cc1ccccc1O)C2 (centres undefined)", "cytotoxicity at 70.5 h (%)": -7.53}
{"compound": "c1cc2ccc(N3CCN(Cc4ccc5c(c4)OCO5)CC3)nc2[nH]1", "cytotoxicity at 70.5 h (%)": -4.53}
{"compound": "COCc1nc(N(C)C)ncc1C(=O)NC(C)C", "cytotoxicity at 70.5 h (%)": 12.7}
{"compound": "Cc1nccn1-c1cc(CNC(=O)C2CCCO2)ccn1 (centres undefined)", "cytotoxicity at 70.5 h (%)": -7.47}
{"compound": "Cc1cc(C(=O)NCCN2CCCCC2C)nn1C(C)(C)C (centres undefined)", "cytotoxicity at 70.5 h (%)": -10.9}
{"compound": "Cc1ccc(-c2noc(CN3CCc4nn(C)c(=O)cc4C3)n2)cc1", "cytotoxicity at 70.5 h (%)": -4.24}
{"compound": "c1cncc(NCCNC2CCSC2)c1 (centres undefined)", "cytotoxicity at 70.5 h (%)": 14.7}
{"compound": "NC(=O)c1ccc(N2CCN(Cc3c(Cl)cncc3Cl)CC2)nc1", "cytotoxicity at 70.5 h (%)": 10.8}
{"compound": "CCC(C)NS(=O)(=O)Cc1cccc(NC(=O)c2cc[nH]c2C)c1 (centres undefined)", "cytotoxicity at 70.5 h (%)": -5.4}
{"compound": "CN1CCC(Cc2cnc(CNC(=O)Cc3cccc(F)c3)cn2)CC1", "cytotoxicity at 70.5 h (%)": -2.96}
{"compound": "O=C(NC1CC1)N1C[C@H]2CN(Cc3cccc(F)c3)C(=O)[C@H]2C1", "cytotoxicity at 70.5 h (%)": -13.8}
{"compound": "CSCC(C)(O)CNS(=O)(=O)Cc1ccc(F)cc1 (centres undefined)", "cytotoxicity at 70.5 h (%)": -11.7}
{"compound": "CC(C)N(C)CCNC(=O)N1CCN(Cc2ccon2)CC1", "cytotoxicity at 70.5 h (%)": -5.35}
{"compound": "Cc1ccc(C(=O)N2CCN(C(=O)C(C)n3ccnc3)CC2)cc1F (centres undefined)", "cytotoxicity at 70.5 h (%)": -5.92}
{"compound": "CN1CCN(c2ccccc2NC(=O)NCCc2ccccc2)CC1", "cytotoxicity at 70.5 h (%)": -5.11}
{"compound": "CC(C)c1cc(C2CCN(C(=O)Cn3cnc4ccccc43)CC2)[nH]n1", "cytotoxicity at 70.5 h (%)": 4.36}
{"compound": "CNCc1cc(C)n(-c2ccccc2OC)c1C", "cytotoxicity at 70.5 h (%)": -5.13}
{"compound": "Cc1nc(C)n(CC(=O)N2CCc3ncc(Cl)cc3C2)n1", "cytotoxicity at 70.5 h (%)": 7.22}
{"compound": "CC(C)n1cc(CN2CCCN(C(=O)C3CCCN3C)CC2)cn1 (centres undefined)", "cytotoxicity at 70.5 h (%)": -3.1}
